Attribution: PubChem BioAssay AID1963869

- System: KRAS patient-derived spheroids with HUVEC/MSC, viability;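 further: spheroids exposed to agents for 7 days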
- Test Name: Anticancer human tumor 323965-272-R-J2-PDC patient-derived pancreatic carcinoma cell line growth inhibition [KRAS2]
- Recorded Conditions: curve of first compound; second compound 1 µM
Exercise: state measured IC50 for each of the compounds provided.
Express the result in nM but write the number alone.

Look up IC50 for this compound: CC1(C)CCC(CN2CCN(c3ccc(C(=O)NS(=O)(=O)c4ccc(NCC5CCOCC5)c([N+](=O)[O-])c4)c(Oc4cnc5[nH]ccc5c4)c3)CC2)=C(c2ccc(Cl)cc2)C1 + CNCc1ccccc1-c1csc(C(C)Nc2nc(C)nc3cc(OC)c(OC)cc23)c1
1910

Look up IC50 for this compound: COC(=O)c1ccc2c(C(=Nc3ccc(N(C)C(=O)CN4CCN(C)CC4)cc3)c3ccccc3)c(O)[nH]c2c1 + C=CC(=O)N1CCN(c2nc(=O)n(-c3c(C)ccnc3C(C)C)c3nc(-c4c(O)cccc4F)c(F)cc23)C(C)C1
243
